# TEST: Capsule administration to small intestine of non-anesthetized pigs (Nipple Valve gastric bypass)
# MEASUREMENT CONTEXT: pig, in vivo; read-out: level of bioavailability in pigs, extrapolated from rat results
ATTRIBUTE MEASURED: bioavailability

Ask: Record request: bioavailability value, item C[C@@H](O)[C@@H]1NC(=O)[C@H](CCCCN)NC(=O)[C@@H](Cc2c[nH]c3ccccc23)NC(=O)[C@H](Cc2ccccc2)NC(=O)[C@@H](NC(=O)[C@H](N)Cc2ccccc2)CSSC[C@@H](C(=O)N[C@H](CO)[C@@H](C)O)NC1=O [octreotide]
Reply: ~0.1%

Each recorded value in this set is attributed to patent US11986529B2.
